assayText: Cytotoxicity activity against human HepG2 cells assessed by CellTiter-Glo luminescent cell viability assay.
Type: toxicity, cell-based
Parameters: assay stage confirmatory assay, source tissue liver
cond: HepG2 cells, read-out: IC50 relative
Active and inactive are the calls of the source. How the calls were made is not given here.
Form entry, call: pick from active, inactive

COc1cc(CNCCN(C)C)ccc1OCc1ccc(F)cc1
active
O=c1cnnc(NCc2ccccc2)n1Cc1ccccc1
active

Would you mind telling me which call this test gave Cc1cccc(NC(=O)C2CCN(S(=O)(=O)c3ccc4c(c3)CC(C)N4C(=O)C3CC3)CC2)n1 (stereo not given) ?
active

Would you mind telling me which call this test gave "C[C@H]1CCC/C=C\[C@@H]2C[C@H](O)C[C@H]2[C@H](O)/C=C\C(=O)O1" ?
active

Would you mind telling me which call this test gave CC(NC(=O)N(C)CC1CCOCC1)c1ccccc1C(F)(F)F (stereo not given) ?
inactive

====

assayText: Cytotoxicity activity against human HepG2 cells assessed by CellTiter-Glo luminescent cell viability assay.
Format: toxicity, cell-based
Set-up: assay stage confirmatory assay, source tissue liver
cond: HepG2 cells, read-out: IC50 relative
Active and inactive are the calls of the source. The rule behind the calls is not given here.
Form entry, call: pick from True = active, False = inactive

CN(C)CCN(CCCN)Cc1ccco1
True
CCCCN[C@H]1CS(=O)(=O)C[C@@H]1S(=O)(=O)c1ccc(Cl)cc1
True
Cc1noc(C)c1C(=O)Nc1nc(-c2ccc(S(=O)(=O)N(C)C)cc2)cs1
True
C[C@H]1CN(C)c2ccccc2N(Cc2cc3ccccc3c(=O)[nH]2)C1
False
COc1cc(-c2nc(-c3cccs3)no2)cc(OC)c1O
True
Clc1ccc(-c2cnc(CN3CC4(CCNCC4)[C@H]4COC[C@H]43)o2)cc1
True

Would you mind telling me which call this test gave "c1cc2c(cc1-c1ccc3c(n1)CCCN3)CCN2" ?
False

Would you mind telling me which call this test gave COc1ccc(C(O)CN2CCN(c3cc(C)ccc3C)CC2)cc1OC (configuration not stated) ?
True

Would you mind telling me which call this test gave COc1cc(N)c(Cl)cc1C(=O)NC1CCN(CCCOc2ccc(F)cc2)CC1OC (configuration not stated) [CISAPRIDE MONOHYDRATE] ?
False

Would you mind telling me which call this test gave C=CC(=O)N1CCC(Oc2cc3c(Nc4ccc(Cl)c(Cl)c4F)ncnc3cc2OC)CC1 [POZIOTINIB] ?
False

Would you mind telling me which call this test gave "C=CC(=O)Nc1ccc(CN2C(=O)N(c3cc(OC)cc(OC)c3)Cc3cnc(Nc4ccc(N5CCN(C)CC5)cc4)nc32)cc1" ?
True

Would you mind telling me which call this test gave "COc1cc(N2CCN(C)CC2)ccc1Nc1ncc2c(n1)N(C)c1ccccc1C(=O)N2" ?
True

Would you mind telling me which call this test gave O=C(NOCC1CC1)c1ccc(F)c(F)c1Nc1ccc(I)cc1Cl [CI-1040] ?
True

Would you mind telling me which call this test gave "CN1CCC(NC(=O)c2ccc3c(c2)n(Cc2ccccc2)c(=O)c2ccnn23)CC1" ?
True

Would you mind telling me which call this test gave "CCOc1ccc(NC(=O)C2CCN(S(=O)(=O)c3ccc4c(c3)OCCCO4)CC2)cc1" ?
False

Would you mind telling me which call this test gave "COc1cc(N2CCC(O)CC2)ccc1Nc1cc(Nc2ccccc2S(=O)(=O)C(C)C)c2cc[nH]c2n1" ?
True

Would you mind telling me which call this test gave "Cc1nn(-c2cccc(Cl)c2)nc1C(=O)NC1CCN(C)CC1" ?
True

Would you mind telling me which call this test gave "CCc1cncnc1N1CCN(Cc2nc3cc(C(F)(F)F)ccc3[nH]2)CC1" ?
True

Would you mind telling me which call this test gave "COc1cc(OC)c(OC)cc1CNC(=O)c1cccc2cccnc12" ?
False

Would you mind telling me which call this test gave "COc1ccc2c(c1)c(C1=C(c3c[nH]c4ccccc34)C(=O)NC1=O)cn2CCCN(C)C" ?
True

Would you mind telling me which call this test gave CCN1CCN(C(=O)C2CCCN(c3nn4cc(-c5ccc(OC)cc5)nc4s3)C2)CC1 (configuration not stated) ?
True

Would you mind telling me which call this test gave "CCc1ccc(NC(=O)N2CCN(c3cc(-n4ccc(C)n4)ncn3)CC2)cc1" ?
False

Would you mind telling me which call this test gave CC1CN(CCS(=O)(=O)c2ccc(Oc3ccc(S(=O)(=O)CCN4CC(C)OC(C)C4)cc3)cc2)CC(C)O1 (configuration not stated) ?
True

Would you mind telling me which call this test gave "C=CCNc1c(O)cc2c(O)c1C[C@@H](C)C[C@H](OC)[C@H](O)[C@@H](C)/C=C(/C)[C@H](OC(N)=O)[C@@H](OC)/C=C\C=C(\C)C(=O)N2" ?
True

====

assayText: Cytotoxicity activity against human HepG2 cells assessed by CellTiter-Glo luminescent cell viability assay.
Format: toxicity, cell-based
Set-up: assay stage confirmatory assay, source tissue liver
cond: HepG2 cells, read-out: IC50 relative
Where a name gives a salt, the structure may show the parent alone. Active and inactive are the calls of the source. The rule behind the calls is not given here.
Form entry, call: pick from yes = active, no = inactive

Nc1ncnc2c1ncn2[C@@H]1CC[C@@H](O)[C@H]1O
yes

Would you mind telling me which call this test gave COc1cccc2c1C(=O)c1c(O)c3c(c(O)c1C2=O)C[C@@](O)(C(C)=O)C[C@@H]3O[C@H]1C[C@H](N)[C@H](O)[C@H](C)O1 [DAUNORUBICIN HYDROCHLORIDE] ?
yes

Would you mind telling me which call this test gave "Cc1cc(Nc2nc(N[C@@H](C)c3ncc(F)cn3)ncc2Cl)n[nH]1" ?
yes

Would you mind telling me which call this test gave "O=C(Nc1nc(-c2ccc(S(=O)(=O)N3CCOCC3)cc2)cs1)c1cccs1" ?
yes

Would you mind telling me which call this test gave "C#CCN(Cc1cc2c(=O)[nH]c(C)nc2cc1Br)c1ccc(C(=O)NCc2cccnc2)cc1" ?
yes

Would you mind telling me which call this test gave c1ccc2c(c1)[I+]c1ccccc1-2 [DIPHENYLENEIODONIUM CHLORIDE] ?
yes

Would you mind telling me which call this test gave "N#Cc1ccc(CNC(=O)CCCCCN2CCN(c3ccccc3-c3ccccc3)CC2)cc1" ?
yes

Would you mind telling me which call this test gave "COc1ccc(NC(=O)c2cc(-c3ccccc3O)no2)cc1" ?
yes

Would you mind telling me which call this test gave "COc1cc(-c2cc(-c3ccc(N4CCNCC4)cc3)cnc2C)cc(OC)c1OC" ?
yes

Would you mind telling me which call this test gave COc1cc2nc(N3CCN(C(=O)C4COc5ccccc5O4)CC3)nc(N)c2cc1OC (stereo unspecified) [DOXAZOSIN MESYLATE] ?
no

Would you mind telling me which call this test gave "Cc1nc(-c2cn3c(n2)-c2ccc(-c4cnn(C(C)(C)C(N)=O)c4)cc2OCC3)n(C(C)C)n1" ?
yes

Would you mind telling me which call this test gave OCCN1CCN(CCCN2c3ccccc3Sc3ccc(C(F)(F)F)cc32)CC1 [FLUPHENAZINE HYDROCHLORIDE] ?
yes

====

assayText: Cytotoxicity activity against human HepG2 cells assessed by CellTiter-Glo luminescent cell viability assay.
Type: toxicity, cell-based
Design: assay stage confirmatory assay, source tissue liver
cond: HepG2 cells, read-out: IC50 relative
Calls of active or inactive are those of the source. The rule behind the calls is not given here.
Below: a set of entries, each annotated with reported CC50.

Guide cases for CC50, answers given:
CC(C)c1cc(Br)ccc1OCCCN1CCN(C)CC1
4.1 µM (active)
COc1ccc(-c2cc3c4nn(CC(=O)Nc5cccc(OC)c5)c(=O)n4ccn3n2)cc1
50 µM (inactive)
CCN1CCN(C(c2ccc(C(F)(F)F)cc2)c2ccc3cccnc3c2O)CC1 (stereo not given)
4.1 µM (active)

For reference, reported CC50 for "CCc1ccc(S(=O)(=O)N2CCN(c3cc(-n4ccc(C)n4)ncn3)CC2)cc1" stands at 6.7 µM (active)

For reference, reported CC50 for "Cc1ccnn1-c1ccc(C(=O)Nc2cc(N(C)C)ccn2)cc1" stands at 12.1 µM (active)

====

assayText: Cytotoxicity activity against human HepG2 cells assessed by CellTiter-Glo luminescent cell viability assay.
Assay type: toxicity, cell-based
Set-up: assay stage confirmatory assay, source tissue liver
cond: HepG2 cells, read-out: IC50 relative
Where a name gives a salt, the structure may show the parent alone. Activity calls are given as the source filed them. No rule for the calls is given here.
Below: a set of entries, each annotated with reported CC50.

COc1ccc2c(c1)C(C(=O)N(Cc1ccc(N(C)C)cc1)c1ccc(C(C)C)cc1)CCC2 (configuration not stated)
23.2 µM (inactive)

For reference, reported CC50 for O=[N+]([O-])c1ccc(-c2nc(-c3ccncc3)c(-c3ccc(F)cc3)[nH]2)cc1 [PD-169316] stands at 50 µM (inactive)

For reference, reported CC50 for "O=C(Nc1ccccn1)c1cccc(NS(=O)(=O)c2c[nH]c3ncccc23)c1" stands at 8.6 µM (active)

For reference, reported CC50 for FC(F)(F)c1ccc(/C=C/c2nc(COc3ccc(CCCCn4ccnn4)cc3)co2)cc1 [MUBRITINIB] stands at 0.3 µM (active)

For reference, reported CC50 for "Cc1noc2ncnc(N3CCC(C(=O)N4CCN(c5cccc(Cl)c5)CC4)CC3)c12" stands at 9.6 µM (active)

For reference, reported CC50 for "CC(C)N(CCCNC(=O)Nc1ccc(C(C)(C)C)cc1)C[C@H]1O[C@@H](n2cc(Br)c3c(N)ncnc32)[C@H](O)[C@@H]1O" stands at 10.1 µM (active)

For reference, reported CC50 for CC[C@]1(O)C[C@@H]2CN(CCc3c([nH]c4ccccc34)[C@@](C(=O)OC)(c3cc4c(cc3OC)N(C)[C@H]3[C@@](O)(C(=O)OC)[C@H](OC(C)=O)[C@]5(CC)C=CCN6CC[C@]43[C@@H]65)C2)C1 [VINBLASTINE SULFATE] stands at 4 µM (active)
